Target: T1, FZD6 cysteine-rich domain (CRD), MYC-tagged and GPI-anchored on CHO cells (human, UniProt O60353 20-146, GPI anchor)
T1 construct: also called FZD6 CRD; CHO-myc-FZDGPI; not shown: MYC tag and GPI anchor signal
T1 sequence: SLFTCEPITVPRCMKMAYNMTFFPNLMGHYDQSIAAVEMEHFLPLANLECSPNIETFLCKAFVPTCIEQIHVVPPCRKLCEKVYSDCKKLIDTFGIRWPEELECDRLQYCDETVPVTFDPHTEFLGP
Experiment: immunofluorescence, CHO-CRD cells
observed property: binding result

binder | observed property | experimental value
Fab-2933 (Fab, V domains shown, Fab; also called Fv-2933) VH: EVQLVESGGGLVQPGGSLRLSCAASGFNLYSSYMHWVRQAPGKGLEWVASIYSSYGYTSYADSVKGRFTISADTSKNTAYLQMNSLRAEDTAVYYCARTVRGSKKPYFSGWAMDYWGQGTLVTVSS VL: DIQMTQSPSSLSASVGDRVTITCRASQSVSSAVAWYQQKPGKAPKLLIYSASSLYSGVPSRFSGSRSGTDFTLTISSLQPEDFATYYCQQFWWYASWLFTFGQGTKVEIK | binding result | no binding
Fab-2930 (Fab, V domains shown, Fab; also called Fv-2930) VH: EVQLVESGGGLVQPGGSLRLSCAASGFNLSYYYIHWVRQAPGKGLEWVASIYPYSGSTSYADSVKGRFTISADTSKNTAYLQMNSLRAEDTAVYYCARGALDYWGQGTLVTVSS VL: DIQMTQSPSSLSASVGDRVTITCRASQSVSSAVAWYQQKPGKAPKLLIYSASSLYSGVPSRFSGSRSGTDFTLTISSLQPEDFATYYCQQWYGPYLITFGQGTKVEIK | binding result | no binding
Fab-2904 (Fab, V domains shown, Fab; also called Fv-2904) VH: EVQLVESGGGLVQPGGSLRLSCAASGFNIYSYSMHWVRQAPGKGLEWVAYISSSYGYTSYADSVKGRFTISADTSKNTAYLQMNSLRAEDTAVYYCARSWYAWAMDYWGQGTLVTVSS VL: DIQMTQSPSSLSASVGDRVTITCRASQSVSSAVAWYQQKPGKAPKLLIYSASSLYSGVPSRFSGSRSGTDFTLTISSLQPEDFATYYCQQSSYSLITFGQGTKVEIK | binding result | no binding
